System: Plasmodium falciparum
method: Antimalarial activity against chloroquine-resistant Plasmodium falciparum FCK by [3H]hypoxanthine uptake
Type: functional, organism-based
assay.endpoint: pIC50
Please report pIC50 as the negative decimal logarithm of the molar concentration, giving only the number.

So what pIC50 did C[C@@H]1CC[C@H]2[C@@H](C)C(=O)O[C@@H]3O[C@@]4(C)CC[C@@H]1[C@]32OO4 [ARTEMISININ] get with Plasmodium falciparum? 7.35

---
# get_value(readout= pIC50, system= Plasmodium falciparum) for COc1cc(/C=C/C(=O)CC(=O)/C=C/c2ccc(O)c(OC)c2)ccc1O [CURCUMIN] 4.82

----------
method: Binding affinity to Plasmodium falciparum ATPase6
assay.endpoint: pKd
Scale for pKd: -log10 of concentration given in mol/L; no unit attached.

Fill in the blank: the reported pKd of COc1cc(/C=C/C(=O)CC(=O)/C=C/c2ccc(O)c(OC)c2)ccc1O (stereo in doubt; form 1) [CURCUMIN] is ____. 5.94

Form field: reported pKd of COc1cc(/C=C/C(=O)CC(=O)/C=C/c2ccc(O)c(OC)c2)ccc1O (stereo in doubt; form 2) [CURCUMIN] 5.61
